tested on: 636577-100-R-J1-PDC complex spheroid viability; test: Anticancer human tumor 636577-100-R-J1-PDC patient-derived endometrial adenocarcinoma cell line growth inhibition [GQUAD]; settings: second compound 1 µM; first compound 0.1 µM; hits give low values
Param label: returns t when viability, T/C < 30%, returns f otherwise, including exact equality.

**Query** Does the reported viability, T/C of O=C(c1cc(Cc2n[nH]c(=O)c3ccccc23)ccc1F)N1CCN(C(=O)C2CC2)CC1 + Cc1[nH]c2ccc(F)cc2c1-c1nc2c3cccnc3c3ncccc3c2[nH]1 stay below 30%?
**Result** f

**Query** Lab note: viability, T/C threshold 30%. Does this molecule come in strictly under it? COc1ncnc(C2CC2)c1-c1ncc2cnn(Cc3ccc(-c4nc(C(F)(F)F)cn4C(C)C)cc3)c2n1 + Cc1[nH]c2ccc(F)cc2c1-c1nc2c3cccnc3c3ncccc3c2[nH]1
**Result** f

**Query** Lab note: viability, T/C threshold 30%. Does this molecule come in strictly under it? C=CCn1c(=O)c2cnc(Nc3ccc(N4CCN(C)CC4)cc3)nc2n1-c1cccc(C(C)(C)O)n1 + Cc1cnc(CNC(=O)c2c(=O)c3ccc(N4CCCN(C)CC4)nc3n3c2sc2ccccc23)cn1
**Result** t

**Query** Please indicate whether the reported viability, T/C of CC(C)(O)C1CCC(Nc2ccc3ncc(-c4cccc(C(F)(F)F)c4)n3n2)CC1 (stereo unspecified) + CN(C)c1ccc(Nc2c3ccc(NC(=O)CCN4CCCC4)cc3nc3cc(NC(=O)CCN4CCCC4)ccc23)cc1 is strictly below 30%.
**Result** f

**Query** Hi there! Is viability, T/C for O=c1[nH]cc(F)c(=O)[nH]1 + Cc1cnc(CNC(=O)c2c(=O)c3ccc(N4CCCN(C)CC4)nc3n3c2sc2ccccc23)cn1 below 30%, do you know?
**Result** t

**Query** Does the reported viability, T/C of the following molecule sit strictly below 30%? COc1ccc([C@@H](O)c2cc(-c3ncnc4cc(N5CCOCC5)ccc34)c(F)cc2Cl)nn1 + CN(C)c1ccc(Nc2c3ccc(NC(=O)CCN4CCCC4)cc3nc3cc(NC(=O)CCN4CCCC4)ccc23)cc1
**Result** f

**Query** Lab log: compare recorded viability, T/C with 30%; is it strictly lower for CC(C)(O)C1CCC(Nc2ccc3ncc(-c4cccc(C(F)(F)F)c4)n3n2)CC1 (stereo unspecified) + Cc1[nH]c2ccc(F)cc2c1-c1nc2c3cccnc3c3ncccc3c2[nH]1 ?
**Result** f

**Query** In the record for Nc1ccn(C2OC(CO)C(O)C2(F)F)c(=O)n1 (stereo unspecified) + CN(C)c1ccc(Nc2c3ccc(NC(=O)CCN4CCCC4)cc3nc3cc(NC(=O)CCN4CCCC4)ccc23)cc1 , is viability, T/C less than 30%?
**Result** t

**Query** Is the reported viability, T/C for Nc1ccn(C2OC(CO)C(O)C2(F)F)c(=O)n1 (stereo unspecified) + Cc1cnc(CNC(=O)c2c(=O)c3ccc(N4CCCN(C)CC4)nc3n3c2sc2ccccc23)cn1 strictly below 30%?
**Result** t

**Query** Record O=c1[nH]cc(F)c(=O)[nH]1 + CN(C)c1ccc(Nc2c3ccc(NC(=O)CCN4CCCC4)cc3nc3cc(NC(=O)CCN4CCCC4)ccc23)cc1 : is its viability, T/C strictly below 30%?
**Result** f

====

tested on: 636577-100-R-J1-PDC complex spheroid viability; test: Anticancer human tumor 636577-100-R-J1-PDC cell line growth inhibition [GQUAD]; conditions: second compound 1 µM; first compound 0.0999 µM; hits give low values;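 further: luminescence signal used as a proxy for viable cells; viability read after seven days of drug exposure; 100% = DMSO vehicle control wells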
Entries and their measured viability, T/C follow.
Answer with a number only, understood to be in %.

Consider the reported viability, T/C for these molecules:
[
  {
    "Molecule": "Cc1[nH]c2ccccc2c1CCNCc1ccc(/C=C/C(=O)NO)cc1 + Cc1cnc(CNC(=O)c2c(=O)c3ccc(N4CCCN(C)CC4)nc3n3c2sc2ccccc23)cn1",
    "viability, T/C, %": 8.25
  },
  {
    "Molecule": "CC[C@@]1(O)C(=O)OCc2c1cc1n(c2=O)Cc2cc3c(CN(C)C)c(O)ccc3nc2-1 + CN(C)c1ccc(Nc2c3ccc(NC(=O)CCN4CCCC4)cc3nc3cc(NC(=O)CCN4CCCC4)ccc23)cc1",
    "viability, T/C, %": 24.4
  },
  {
    "Molecule": "Cn1ncnc1[C@H]1c2n[nH]c(=O)c3cc(F)cc(c23)N[C@@H]1c1ccc(F)cc1 + CN(C)c1ccc(Nc2c3ccc(NC(=O)CCN4CCCC4)cc3nc3cc(NC(=O)CCN4CCCC4)ccc23)cc1",
    "viability, T/C, %": 40.2
  }
]

**Query** Report viability, T/C from 636577-100-R-J1-PDC complex spheroid viability testing of Cn1ncnc1[C@H]1c2n[nH]c(=O)c3cc(F)cc(c23)N[C@@H]1c1ccc(F)cc1 + Cc1[nH]c2ccc(F)cc2c1-c1nc2c3cccnc3c3ncccc3c2[nH]1
**Result** 47.9

**Query** Recall the reported viability, T/C of Cn1ncnc1[C@H]1c2n[nH]c(=O)c3cc(F)cc(c23)N[C@@H]1c1ccc(F)cc1 + Cc1cnc(CNC(=O)c2c(=O)c3ccc(N4CCCN(C)CC4)nc3n3c2sc2ccccc23)cn1 on 636577-100-R-J1-PDC complex spheroid viability and write it down.
**Result** 19.4

====

test system: 636577-100-R-J1-PDC complex spheroid viability; assay: Anticancer human tumor 636577-100-R-J1-PDC cell line growth inhibition [GQUAD]; conditions: second compound 0.1 µM; first compound 3.16 µM; hits give low values;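 further: luminescence signal used as a proxy for viable cells; viability read after seven days of drug exposure; 100% = DMSO vehicle control wells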
Define the label as yes (1) when viability, T/C is strictly less than 30% and as no (0) in all remaining cases.

# count of solved cases: 5
[
  {
    "Molecule": "Nc1ccn(C2OC(CO)C(O)C2(F)F)c(=O)n1 (stereo unspecified) + CN(C)c1ccc(Nc2c3ccc(NC(=O)CCN4CCCC4)cc3nc3cc(NC(=O)CCN4CCCC4)ccc23)cc1",
    "Class Assignment": "yes (1)"
  },
  {
    "Molecule": "C=CC(=O)N1CCN(c2nc(=O)n(-c3c(C)ccnc3C(C)C)c3nc(-c4c(O)cccc4F)c(F)cc23)C(C)C1 (stereo unspecified) + Cc1cnc(CNC(=O)c2c(=O)c3ccc(N4CCCN(C)CC4)nc3n3c2sc2ccccc23)cn1",
    "Class Assignment": "no (0)"
  },
  {
    "Molecule": "O=c1[nH]cc(F)c(=O)[nH]1 + Cc1cnc(CNC(=O)c2c(=O)c3ccc(N4CCCN(C)CC4)nc3n3c2sc2ccccc23)cn1",
    "Class Assignment": "yes (1)"
  },
  {
    "Molecule": "COc1ccc([C@@H](O)c2cc(-c3ncnc4cc(N5CCOCC5)ccc34)c(F)cc2Cl)nn1 + Cc1[nH]c2ccc(F)cc2c1-c1nc2c3cccnc3c3ncccc3c2[nH]1",
    "Class Assignment": "no (0)"
  },
  {
    "Molecule": "CCCS(=O)(=O)Nc1ccc(F)c(C(=O)c2c[nH]c3ncc(-c4ccc(Cl)cc4)cc23)c1F + CN(C)c1ccc(Nc2c3ccc(NC(=O)CCN4CCCC4)cc3nc3cc(NC(=O)CCN4CCCC4)ccc23)cc1",
    "Class Assignment": "no (0)"
  }
]

**Query** I wonder whether CC(C)n1c(=O)n(C)c2cnc3cc(F)c(-c4ccc(OCCCN5CCCCC5)nc4)cc3c21 + Cc1[nH]c2ccc(F)cc2c1-c1nc2c3cccnc3c3ncccc3c2[nH]1 has viability, T/C below 30%. Can you tell?
**Result** no (0)

**Query** A record lists COc1cc(C2c3cc4c(cc3C(OC3OC5COC(C)OC5C(O)C3O)C3COC(=O)C23)OCO4)cc(OC)c1O (stereo unspecified) + Cc1cnc(CNC(=O)c2c(=O)c3ccc(N4CCCN(C)CC4)nc3n3c2sc2ccccc23)cn1 . Is its viability, T/C below 30%?
**Result** yes (1)

**Query** Criterion: viability, T/C strictly below 30%. Is it met by C=CCn1c(=O)c2cnc(Nc3ccc(N4CCN(C)CC4)cc3)nc2n1-c1cccc(C(C)(C)O)n1 + Cc1cnc(CNC(=O)c2c(=O)c3ccc(N4CCCN(C)CC4)nc3n3c2sc2ccccc23)cn1 ?
**Result** yes (1)

**Query** In the record for O=C(NO)c1cnc(N2CCN(S(=O)(=O)c3ccc4ccccc4c3)CC2)nc1 + Cc1cnc(CNC(=O)c2c(=O)c3ccc(N4CCCN(C)CC4)nc3n3c2sc2ccccc23)cn1 , is viability, T/C less than 30%?
**Result** yes (1)

**Query** Field: below-cutoff. Rule: recorded viability, T/C strictly less than 30%. Subject: COc1cccc2c1C(=O)c1c(O)c3c(c(O)c1C2=O)CC(O)(C(=O)CO)CC3OC1CC(N)C(O)C(C)O1 (stereo unspecified) + Cc1[nH]c2ccc(F)cc2c1-c1nc2c3cccnc3c3ncccc3c2[nH]1
**Result** yes (1)
